# target_under_test: T1, His-human LIGHT (human)
# T1 construct: also called His-huLIGHT; free LIGHT
# T1 chain: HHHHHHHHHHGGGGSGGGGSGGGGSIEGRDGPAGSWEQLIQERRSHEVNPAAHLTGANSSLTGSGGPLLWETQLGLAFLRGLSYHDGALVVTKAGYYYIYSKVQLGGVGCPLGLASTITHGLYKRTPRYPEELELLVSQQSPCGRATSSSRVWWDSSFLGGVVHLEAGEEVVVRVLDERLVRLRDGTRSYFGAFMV
# assay_explanation: SPR, Biacore 8K, antibody on CM5 chip, human LIGHT
measured_endpoint: koff

These recorded examples may help you get a feel for the data.
[[record]]
binder = "hum_LT-m37-4 (antibody, human IgG4, V domains shown, humanized from LT-m37) VH: QVQLVQSGAEVKKPGASVKVSCKASGYSFTGYFINWVRQAPGQGLEWIGRIYPYNVNTFYNQNFKGRVTMTADKSTSTAYMELSSLRSEDTAVYYCGRGTHYYGSSGAMDYWGQGTLVTVSS VL: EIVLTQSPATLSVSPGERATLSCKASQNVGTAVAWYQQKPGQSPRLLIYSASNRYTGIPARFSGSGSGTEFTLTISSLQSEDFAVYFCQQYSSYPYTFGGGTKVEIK"
measured_result = "7.1e-05 s⁻¹"

[[record]]
binder = "hum_LT-m37-9 (antibody, human IgG4, V domains shown, humanized from LT-m37) VH: QVQLVQSGAEVKKPGASVKVSCKASGYSFTGYFINWVRQAPGQSLEWIGRIYPYNVNTFYNQNFKGRATLTADKSTSTAYMELSSLRSEDTAVYYCGRGTHYYGSSGAMDYWGQGTLVTVSS VL: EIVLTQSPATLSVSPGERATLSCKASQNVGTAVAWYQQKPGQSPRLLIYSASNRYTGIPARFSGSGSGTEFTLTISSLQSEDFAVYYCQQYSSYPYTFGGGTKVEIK"
measured_result = "8.03e-05 s⁻¹"

[[record]]
binder = "hum_LT-m37-12 (antibody, human IgG4, V domains shown, humanized from LT-m37) VH: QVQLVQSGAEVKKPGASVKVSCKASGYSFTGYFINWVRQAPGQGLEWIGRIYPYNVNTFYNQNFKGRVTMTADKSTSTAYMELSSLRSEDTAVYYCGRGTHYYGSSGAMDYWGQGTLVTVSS VL: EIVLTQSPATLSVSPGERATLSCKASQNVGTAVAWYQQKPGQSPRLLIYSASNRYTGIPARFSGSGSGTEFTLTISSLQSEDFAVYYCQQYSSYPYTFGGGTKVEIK"
measured_result = "6.75e-05 s⁻¹"

[[record]]
binder = "hum_LT-m37-7 (antibody, human IgG4, V domains shown, humanized from LT-m37) VH: QVQLVQSGAEVKKPGASVKVSCKASGYSFTGYFINWVRQAPGQGLEWIGRIYPYNVNTFYNQNFKGRATMTADKSTSTAYMELSSLRSEDTAVYYCGRGTHYYGSSGAMDYWGQGTLVTVSS VL: EIVMTQSPATLSVSPGERATLSCKASQNVGTAVAWYQQKPGQSPRLLIYSASNRYTGIPARFSGSGSGTEFTLTISSLQSEDFAVYFCQQYSSYPYTFGGGTKVEIK"
measured_result = "5.34e-05 s⁻¹"

[[record]]
binder = "hum_LT-m37-5 (antibody, human IgG4, V domains shown, humanized from LT-m37) VH: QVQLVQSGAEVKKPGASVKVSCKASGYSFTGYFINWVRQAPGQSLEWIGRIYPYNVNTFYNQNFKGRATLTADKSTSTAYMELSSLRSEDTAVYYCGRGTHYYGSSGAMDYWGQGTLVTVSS VL: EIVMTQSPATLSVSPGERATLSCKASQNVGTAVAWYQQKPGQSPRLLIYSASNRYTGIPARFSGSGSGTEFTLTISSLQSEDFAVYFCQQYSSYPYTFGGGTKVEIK"
measured_result = "6.34e-05 s⁻¹"


Item under review: hum_LT-m37-11 (antibody, human IgG4, V domains shown, humanized from LT-m37) VH: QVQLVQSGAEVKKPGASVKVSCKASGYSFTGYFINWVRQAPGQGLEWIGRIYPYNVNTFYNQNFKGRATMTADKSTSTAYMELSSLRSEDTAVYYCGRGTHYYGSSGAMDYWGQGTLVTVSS VL: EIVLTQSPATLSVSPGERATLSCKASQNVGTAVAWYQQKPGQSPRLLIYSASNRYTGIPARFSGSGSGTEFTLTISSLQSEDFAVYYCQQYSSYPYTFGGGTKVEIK . Reported koff?
7.69e-05 s⁻¹

Endpoint output: koff of hum_LT-m37-8 (antibody, human IgG4, V domains shown, humanized from LT-m37) VH: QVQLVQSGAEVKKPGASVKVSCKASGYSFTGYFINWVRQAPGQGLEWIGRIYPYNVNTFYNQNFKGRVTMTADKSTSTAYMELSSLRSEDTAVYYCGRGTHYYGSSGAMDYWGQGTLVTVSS VL: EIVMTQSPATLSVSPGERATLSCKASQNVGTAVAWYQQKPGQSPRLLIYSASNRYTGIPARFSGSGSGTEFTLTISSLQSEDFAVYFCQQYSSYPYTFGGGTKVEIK . Value?
4.86e-05 s⁻¹

# input binder: hum_LT-m37-6 (antibody, human IgG4, V domains shown, humanized from LT-m37) VH: QVQLVQSGAEVKKPGASVKVSCKASGYSFTGYFINWVRQAPGQGLEWIGRIYPYNVNTFYNQNFKGRATLTADKSTSTAYMELSSLRSEDTAVYYCGRGTHYYGSSGAMDYWGQGTLVTVSS VL: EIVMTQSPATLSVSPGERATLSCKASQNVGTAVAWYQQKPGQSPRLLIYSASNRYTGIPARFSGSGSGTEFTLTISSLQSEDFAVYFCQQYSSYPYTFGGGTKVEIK ; wanted: its koff
5.25e-05 s⁻¹
